Origin of the recorded values: the supplement of paper PMC10326909

Entries and their ESI positive response factor
assayProtocol: ESI positive response factor (isotope-corrected peak area per molar concentration) in SFC/ESI/HRMS (area units per M); higher = higher ionization efficiency;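 also: standards in acetonitrile/water run in triplicate on a zwitterionic HILIC column, CO2–methanol gradient containing 20 mmol/L ammonium acetate, postcolumn makeup flow, Orbitrap full-scan detection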
recordedConditions: 0.061 µM
// return a plain number; no unit text

The cases that follow already have their ESI positive response factor on record.
>>> df
                                   molecule  observedmeasurement
0         N=C(N=C(N)N)N1CCOCC1 [Moroxydine]             1.94e+17
1  Cc1cc(=O)oc2cc(O)ccc12 [4-Methylumbelliferone]             7.61e+16
2    CSc1nnc(C(C)(C)C)c(=O)n1N [Metribuzin]             1.69e+17
3  NCCCC[C@H](N[C@@H](CCc1ccccc1)C(=O)O)C(=O)N1CCC[C@H]1C(=O)O [Lisinopril]             1.89e+16
4      N=c1nc(N2CCCCC2)cc(N)n1O [Minoxidil]             1.77e+17

Please examine the following record next.
Could you tell me which ESI positive response factor is on file for Nc1nc(N)nc(N)n1 [Melamine] ?
2.07e+16

====

Reported ESI positive response factor is given for each of the following compounds.
assayProtocol: ESI positive response factor (isotope-corrected peak area per molar concentration) in SFC/ESI/HRMS (area units per M); higher = higher ionization efficiency
recordedConditions: 0.0175 µM
Lab note: record just the number, no unit beside it.

                                   compound                   assaymetric  observedmeasurement
0  CNCCC(Oc1ccc(C(F)(F)F)cc1)c1ccccc1 (stereo not given) [Fluoxetine]  ESI positive response factor              9.5e+16

Consider the record given below.
Field request: ESI positive response factor | item: CC(O)CN(CCO)CCO (stereo not given) [1-[N,N-Bis(2-hydroxyethyl)amino]-2-propanol]
2.91e+17

====

assayProtocol: ESI positive response factor (isotope-corrected peak area per molar concentration) in SFC/ESI/HRMS (area units per M); higher = higher ionization efficiency
recordedConditions: 0.35 µM
Here the recorded ESI positive response factor is given for each entry.

# annotated cases, reported ESI positive response factor shown
>>> df
                                   molecule  observedmeasurement
0              CON(C)C(=O)Nc1ccc(Br)c(Cl)c1             5.21e+16
1          COCC(=O)N(c1c(C)cccc1C)N1CCOC1=O             1.48e+17
2        Cn1cnc2c1c(=O)n(CCCC(=O)O)c(=O)n2C             2.34e+16
3  COC=C(C(=O)OC)c1ccccc1COc1cccc(C(F)(F)F)n1             2.47e+17
4  CN(C)CCOC(c1ccccc1)c1ccccc1 [Diphenhydramine]              2.4e+17
5  O=C(O)C(c1ccccc1)C1CCCCN1 (stereo not given)             1.31e+17
6                CCC1(c2ccccc2)C(=O)NCNC1=O             1.08e+17
7                   C1CN(CCOCCN2CCOCC2)CCO1             3.23e+17

Tell me the measured ESI positive response factor of CC(C)NCC(O)COc1ccc(C(=O)O)cc1 (stereo not given) , please.
1.6e+17

If you can, please state the reported ESI positive response factor value of `Nc1ccccn1` .
1.73e+16
